System: HepG2
methodSummary: Antiproliferative activity against human HepG2 cells after 24 hrs by MTT assay
Type: functional, cell-based
conditionParameters: HepG2, 24 h
pIC50: −log10 of the molar value.
Listing: pIC50 of selected molecules

Recorded results for 8 molecules are shown here.
1. COc1cc(OC)c(-c2coc3cc(OC(=O)Cc4cccc(C(F)(F)F)c4)ccc3c2=O)cc1OC :: < 5.00
2. COc1cc(OC)c(-c2coc3cc(OCc4cccc(Cl)c4)ccc3c2=O)cc1OC :: 6.12
3. COc1cccc(C(=O)Oc2ccc3c(=O)c(-c4cc(OC)c(OC)cc4OC)coc3c2)c1 :: < 5.00
4. CC1(C)C=Cc2c(ccc3c(=O)c(-c4ccc5c(c4)OCCO5)coc23)O1 :: < 5.00
5. CC1(C)C=Cc2c(ccc3c(=O)c(-c4ccc(Cl)c(C(F)(F)F)c4)coc23)O1 :: < 5.00
6. COc1cc(OC)c(-c2coc3cc(OCc4ccc(F)cc4)ccc3c2=O)cc1OC :: 6.00
7. CC1(C)C=Cc2c(ccc3c(=O)c(-c4ccc(C(F)(F)F)cc4Cl)coc23)O1 :: < 5.00
8. COc1cc(-c2coc3c4c(ccc3c2=O)OC(C)(C)C=C4)cc(OC)c1OC :: < 5.00

Tell me the measured pIC50 of COc1ccc(-c2coc3c4c(ccc3c2=O)OC(C)(C)C=C4)c(OC)c1 , please. < 5.00

Tell me the measured pIC50 of COc1ccccc1-c1coc2c3c(ccc2c1=O)OC(C)(C)C=C3 , please. < 5.00
